Target: interaction between PD-1 and PD-L1 expressed on cell surfaces (Homo sapiens (Human))
Sequence (Q9NZQ7 19-290): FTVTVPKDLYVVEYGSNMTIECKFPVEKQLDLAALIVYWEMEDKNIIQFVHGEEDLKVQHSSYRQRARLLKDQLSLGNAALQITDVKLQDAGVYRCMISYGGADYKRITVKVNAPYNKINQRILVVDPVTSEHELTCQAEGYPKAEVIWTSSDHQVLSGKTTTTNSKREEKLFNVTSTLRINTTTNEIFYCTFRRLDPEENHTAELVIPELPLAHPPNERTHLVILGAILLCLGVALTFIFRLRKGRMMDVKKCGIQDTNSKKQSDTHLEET
Assay: Jurkat reporter gene cellular assay (Jurkat/NF-κB-luc/PD1 cells cocultured with Raji-PD-L1 cells, OKT-3 stimulation)
Assay type: cell-based
Details: NF-κB-luc reporter activation fold, 6 hrs; read-out: Cell Activity EC50
metric: EC50 (nM)

COc1cc(C(=O)Nc2cccc(-c3cccc(NC(=O)c4cc(OC)c(CN[C@H]5CCOC5=O)cn4)c3C)c2C)ncc1CN[C@H]1CCOC1=O [Example 68] ... 261

1 = Cc1c(NC(=O)c2cc(C3CC3)c(CNCC(F)(F)F)cn2)cccc1-c1cccc(NC(=O)c2cc(C3CC3)c(CNCC(F)(F)F)cn2)c1C [Example 140]
2 = Cc1cc(C(=O)Nc2cccc(-c3cccc(NC(=O)c4cc(C)c(CNC(CO)CO)cn4)c3C)c2C)ncc1CNC(CO)CO [Example 8]
-- ask Compare the recorded EC50 of 1 and 2 ; state which is larger. Answer with the label corresponding to your selection.
-- reply 1

A = Cc1c(NC(=O)c2cc(C3CC3)c(CN3CC(C)(O)C3)cn2)cccc1-c1cccc(NC(=O)c2cc(C3CC3)c(CN3CC(C)(O)C3)cn2)c1C [Example 99]
B = COC(=O)[C@@H](CO)NCc1cnc(C(=O)Nc2cccc(-c3cccc(NC(=O)c4cc(C)c(CN[C@H](CO)C(=O)OC)cn4)c3C)c2C)cc1C [Example 20]
-- ask Compare the recorded EC50 of A and B ; state which is larger. Answer with the label corresponding to your selection.
-- reply B

* * *

Assay: Pharmacokinetic assay in mice, per oral administration
Assay type: in vivo
Conditions: male, mouse, plasma; PO 10 mg/kg, ICR mice, original compound analyzed
metric: MRT (h)

Cc1c(NC(=O)c2ccc(CNCCO)cn2)cccc1-c1cccc(NC(=O)c2ccc(CNCCO)cn2)c1C ... 3.3
COc1cc(C(=O)Nc2cccc(-c3cccc(NC(=O)c4cc(OC)c(CN5CC(C)(O)C5)cn4)c3C)c2C)ncc1CN1CC(C)(O)C1 ... 15.5
Cc1cc(C(=O)Nc2cccc(-c3cccc(NC(=O)c4cc(C)c(CNCCO)cn4)c3C)c2C)ncc1CNCCO ... 10.2

A = COc1cc(C(=O)Nc2cccc(-c3cccc(NC(=O)c4cc(OC)c(CNCCO)cn4)c3C)c2C)ncc1CNCCO
B = Cc1cc(C(=O)Nc2cccc(-c3cccc(NC(=O)c4cc(C)c(CNC(CO)CO)cn4)c3C)c2C)ncc1CNC(CO)CO
-- ask // compare measured MRT between A and B ; output the lower one Answer with the label corresponding to your selection.
-- reply B
(B: 5.4 h, A: 16.7 h)

* * *

Test: Pharmacokinetic assay in mice, per oral administration
Assay type: in vivo
Conditions: male, mouse, plasma; PO 10 mg/kg, ICR mice, original compound analyzed
metric: Tmax (h)

P = COc1cc(C(=O)Nc2cccc(-c3cccc(NC(=O)c4cc(OC)c(CN5CC(C)(O)C5)cn4)c3C)c2C)ncc1CN1CC(C)(O)C1 [Example 46]
Q = Cc1cc(C(=O)Nc2cccc(-c3cccc(NC(=O)c4cc(C)c(CNC(CO)CO)cn4)c3C)c2C)ncc1CNC(CO)CO [Example 8]
R = COc1cc(C(=O)Nc2cccc(-c3cccc(NC(=O)c4cc(OC)c(CNCCO)cn4)c3C)c2C)ncc1CNCCO [Example 3]
-- ask // TODO: order the 3 compounds above by Tmax, descending To answer, arrange all of the labels according to the requested order.
-- reply P, Q, R

P = Cc1c(NC(=O)c2ccc(CNCCO)cn2)cccc1-c1cccc(NC(=O)c2ccc(CNCCO)cn2)c1C [Example 1]
Q = Cc1cc(C(=O)Nc2cccc(-c3cccc(NC(=O)c4cc(C)c(CNCCO)cn4)c3C)c2C)ncc1CNCCO [Example 5]
-- ask // compare measured Tmax between P and Q ; output the lower one Answer with the label corresponding to your selection.
-- reply P
(P: 1 h, Q: 2 h)
